target: FGF14:Nav1.6 C-tail complex (Homo sapiens, UniProt Q92915+Q9UQD0); construct: polymerase chain reaction (PCR) amplification of the FGF14 open reading frame (nt 1–855); C-terminal fragment of Nav1.6 (amino acids 1763–1976) fused with CD4ΔC-tail (amino acids 1–395); expressed in transfected cells; test: Split-luciferase complementation assay (LCA) in Clone V double stable HEK293 cells; assay type: cell-based; details: CC_NCI screening, biological replicate Set 2; normalized to on-plate 0.3% DMSO controls (n=16 per plate)
Sequence (Q92915 1-252 isoform Q92915-2): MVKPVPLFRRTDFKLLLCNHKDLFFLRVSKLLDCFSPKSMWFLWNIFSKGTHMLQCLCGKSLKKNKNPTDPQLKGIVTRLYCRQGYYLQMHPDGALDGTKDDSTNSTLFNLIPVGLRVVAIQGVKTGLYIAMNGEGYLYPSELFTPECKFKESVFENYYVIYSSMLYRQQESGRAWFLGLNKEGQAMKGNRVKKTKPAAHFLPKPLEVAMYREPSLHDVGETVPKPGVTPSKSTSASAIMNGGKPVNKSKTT
Sequence (Q9UQD0 1763-1976 limits assumed): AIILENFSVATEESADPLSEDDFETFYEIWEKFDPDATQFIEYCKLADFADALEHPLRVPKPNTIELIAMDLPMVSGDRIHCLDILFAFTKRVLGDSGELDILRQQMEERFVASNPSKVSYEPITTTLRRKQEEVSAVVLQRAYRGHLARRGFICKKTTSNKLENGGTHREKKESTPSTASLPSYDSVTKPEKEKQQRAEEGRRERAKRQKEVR
ENDPOINT LABEL: Split Luciferase Assay %Lum Set 2 (%)
Your answer should be a plain number; it is taken to be in %.

Find the recorded Split Luciferase Assay %Lum Set 2 belonging to `c1cc(-c2cnn3cc(-c4ccc(OCCN5CCCCC5)cc4)cnc23)ccn1` and report it. 115.47

Next molecule up: `NC(=O)Nc1cc(-c2cccc(F)c2)sc1C(=O)N[C@H]1CCCNC1` 67.62

Next molecule up: `O=c1[nH]cc(F)c(=O)[nH]1` 116.51

Next molecule up: `Cn1cc(/C=C2\C(=O)Nc3cccnc32)c2ccccc21` 71.78

Next molecule up: Cl.N[C@@H](Cc1ccc(N(CCCl)CCCl)cc1)C(=O)O [Melphalan hydrochloride] 98.83

Next molecule up: Cc1cc(C(C)Nc2ccccc2)c2nc(N3CCOCC3)cc(=O)n2c1 (stereo not shown) 123.80

Next molecule up: `CS(=O)(=O)c1ccc(C(=O)Nc2ccc(Cl)c(-c3ccccn3)c2)c(Cl)c1` 124.84

Next molecule up: O=P1(NCCCl)OCCCN1CCCl (stereo not shown) [Ifosfamide] 99.87

Next molecule up: COc1cc([C@@H]2c3cc4c(cc3[C@@H](O[C@@H]3O[C@@H]5CO[C@@H](c6cccs6)O[C@H]5[C@H](O)[C@H]3O)[C@H]3COC(=O)[C@H]23)OCO4)cc(OC)c1O [Teniposide] 125.88

Next molecule up: CN(C)C[C@@H]1CCn2cc(c3ccccc32)C2=C(C(=O)NC2=O)c2cn(c3ccccc23)CCO1 [LY 333531, reference compound] 27.05

Next molecule up: `CCCCC(=O)OCC(=O)[C@]1(O)Cc2c(O)c3c(c(O)c2[C@@H](O[C@H]2C[C@H](NC(=O)C(F)(F)F)[C@H](O)[C@H](C)O2)C1)C(=O)c1c(OC)cccc1C3=O` 114.43

Next molecule up: Clc1ccc(C(c2ccccc2Cl)C(Cl)Cl)cc1 (stereo not shown) 36.41

Next molecule up: `N.N.O=C([O-])C1(C(=O)[O-])CCC1.[Pt+2]` 114.43

Next molecule up: `CC(C)C[C@H](NC(=O)[C@H](CCc1ccccc1)NC(=O)CN1CCOCC1)C(=O)N[C@@H](Cc1ccccc1)C(=O)N[C@@H](CC(C)C)C(=O)[C@@]1(C)CO1` 80.10

Next molecule up: `COc1cc(N2CCC(N3CCN(C)CC3)CC2)ccc1Nc1ncc(Cl)c(Nc2ccccc2S(=O)(=O)C(C)C)n1` 5.20

Next molecule up: CC(=O)O[C@]1(C(C)=O)CC[C@H]2[C@@H]3C=C(C)C4=CC(=O)CC[C@]4(C)[C@H]3CC[C@@]21C [Megestrol acetate] 135.24

====

molecular target: FGF14:Nav1.6 C-tail complex (Homo sapiens, UniProt Q92915+Q9UQD0); construct: polymerase chain reaction (PCR) amplification of the FGF14 open reading frame (nt 1–855); C-terminal fragment of Nav1.6 (amino acids 1763–1976) fused with CD4ΔC-tail (amino acids 1–395); expressed in transfected cells; assay: Split-luciferase complementation assay (LCA) in Clone V double stable HEK293 cells; type: cell-based; details: CC_NCI screening, biological replicate Set 1; normalized to on-plate 0.3% DMSO controls (n=16 per plate)
Where a name gives a salt, the structure may show the parent alone.
Quick rule for you: Split Luciferase Assay % Lum Set 1 at 70% or higher means yes, lower means no.

Please check the record `O=c1[nH]cc(F)c(=O)[nH]1` and state if its Split Luciferase Assay % Lum Set 1 is at or above 70%. yes

Next compound up: `CC(C)[C@H](NS(=O)(=O)c1ccc(-c2ccc(Br)cc2)cc1)C(=O)O` yes

Next compound up: `O=C1NC(=O)/C(=C/c2ccc3c(c2)OC(F)(F)O3)S1` no

Next compound up: `O=c1[nH]nc(Sc2ncc([N+](=O)[O-])s2)n1-c1ccc2c(c1)OCCO2` no

Next compound up: CC[C@]1(O)C[C@@H]2CN(CCc3c([nH]c4ccccc34)[C@@](C(=O)OC)(c3cc4c(cc3OC)N(C)[C@H]3[C@@](O)(C(=O)OC)[C@H](OC(C)=O)[C@]5(CC)C=CCN6CC[C@]43[C@@H]65)C2)C1 [Vinblastine sulfate] yes

Next compound up: CC(=O)[C@]1(O)Cc2c(O)c3c(c(O)c2[C@@H](O[C@H]2C[C@H](N)[C@H](O)[C@H](C)O2)C1)C(=O)c1ccccc1C3=O [Idarubicin hydrochloride] yes

Next compound up: `COc1cc(N2CCC(N3CCN(C)CC3)CC2)ccc1Nc1ncc(Cl)c(Nc2ccccc2S(=O)(=O)C(C)C)n1` no

Next compound up: `COc1ccc(OC)c2c(=S)c3ccccc3[nH]c12` yes
